Test system: HeLa
Assay: cell viability (CellTiter-Glo) relative to median of lowest-dilution wells of all drugs (fraction); higher = more viable cells
Conditions: drug concentration (unit not stated): 0.12; genotype: control (DDX11 wild type)
# cell viability listing for each entry below
Simply state the number, no unit and no words.

# example entries with known answers
SMILES TEXT: Nc1nc2[nH]cnc2c(=S)[nH]1
ATTRIBUTE MEASURED: cell viability
TEST RESULT: 0.971

SMILES TEXT: COc1cccc2c1C(=O)c1c(O)c3c(c(O)c1C2=O)C[C@@](O)(C(=O)CO)C[C@@H]3O[C@H]1C[C@H](N)[C@H](O)[C@H](C)O1
ATTRIBUTE MEASURED: cell viability
TEST RESULT: 0.96

SMILES TEXT: CC(=O)Nc1cccc(-n2c(=O)n(C3CC3)c(=O)c3c(Nc4ccc(I)cc4F)n(C)c(=O)c(C)c32)c1
ATTRIBUTE MEASURED: cell viability
TEST RESULT: 0.914

SMILES TEXT: COc1cc(Nc2ncc3c(n2)-c2ccc(Cl)cc2C(c2c(F)cccc2OC)=NC3)ccc1C(=O)O
ATTRIBUTE MEASURED: cell viability
TEST RESULT: 0.966

SMILES TEXT: CC[C@]1(O)C[C@@H]2CN(CCc3c([nH]c4ccccc34)[C@@](C(=O)OC)(c3cc4c(cc3OC)N(C)[C@H]3[C@@](O)(C(=O)OC)[C@H](OC(C)=O)[C@]5(CC)C=CCN6CC[C@]43[C@@H]65)C2)C1
ATTRIBUTE MEASURED: cell viability
TEST RESULT: 0.441

SMILES TEXT: CCS(=O)(=O)Nc1ccc2c(c1)/C(=C(/Nc1ccc(CN3CCCCC3)cc1)c1ccccc1)C(=O)N2
ATTRIBUTE MEASURED: cell viability
TEST RESULT: 0.995

SMILES TEXT: Nc1ncn([C@@H]2O[C@H](CO)[C@@H](O)[C@H]2O)c(=O)n1
ATTRIBUTE MEASURED: cell viability
TEST RESULT: 1.04

The reported value for NC(=O)c1ccc(I)c([N+](=O)[O-])c1 in terms of cell viability is 0.996

====

System: HeLa
Assay: cell viability (CellTiter-Glo) relative to median of lowest-dilution wells of all drugs (fraction); higher = more viable cells
Details: drug concentration (unit not stated): 3.33; genotype: control (DDX11 wild type)
Output 1.0 for records whose cell viability is lower than 0.5, 0.0 for records at or above 0.5.

The following molecules have reported results that may help.
MOLECULE: CNC(=O)c1cccc(-c2ccc3c(N4CCOC[C@@H]4C)nc(N4CCOC[C@@H]4C)nc3n2)c1
STUDY SYSTEM: HeLa
LABEL: 0.0
--
MOLECULE: C[C@@H]1COCCN1c1cc(C2([S@](C)(=N)=O)CC2)nc(-c2cc[nH]c3nccc2-3)n1
STUDY SYSTEM: HeLa
LABEL: 0.0
--
MOLECULE: COc1ccc(C2=N[C@@H](c3ccc(Cl)cc3)[C@@H](c3ccc(Cl)cc3)N2C(=O)N2CCNC(=O)C2)c(OC(C)C)c1
STUDY SYSTEM: HeLa
LABEL: 0.0
--
MOLECULE: COc1cc([C@@H]2c3cc4c(cc3[C@@H](O[C@@H]3O[C@@H]5CO[C@@H](C)O[C@H]5[C@H](O)[C@H]3O)[C@H]3COC(=O)[C@H]23)OCO4)cc(OC)c1O [Etoposide (VP-16)]
STUDY SYSTEM: HeLa
LABEL: 1.0
--
MOLECULE: NC(=O)Nc1cc(-c2cccc(F)c2)sc1C(=O)N[C@H]1CCCNC1
STUDY SYSTEM: HeLa
LABEL: 1.0
--
MOLECULE: COc1ncc(-c2ccc3nccc(-c4ccnnc4)c3c2)cc1NS(=O)(=O)c1ccc(F)cc1F
STUDY SYSTEM: HeLa
LABEL: 1.0

With those in mind, consider the next molecule.
Determine whether this molecule shows cell viability lower than 0.5 (ties excluded): CC(C)C[C@H](NC(=O)[C@H](Cc1ccccc1)NC(=O)c1cnccn1)B(O)O
1.0
